Just for reference, the NIST ThermoML archive (doi:10.1016/j.jct.2013.08.005) is where these values come from.

- conditions: 298.15 K; Liquid; Gas chromatography
Quick rule for you: vapor or sublimation pressure under 0.04 kPa gets Fulfilled, anything else gets Not fulfilled.

>>> assignedcategory("CCCCNCCCC [dibutylamine]")
"Not fulfilled"
>>> assignedcategory("C[C@@H]1CCC[C@H](C)N1 [2,6-lupetidine, cis-]")
"Not fulfilled"
>>> assignedcategory("CCCCCCCCNCCCCCCCC [dioctylamine]")
"Fulfilled"
>>> assignedcategory("c1ccc(CC2CCNCC2)cc1 [4-benzylpiperidine]")
"Fulfilled"
>>> assignedcategory("C1CCNCC1 [piperidine]")
"Not fulfilled"
>>> assignedcategory("CN[C@@H](C)Cc1ccccc1 [(S)-N-methyl-1-phenylpropan-2-amine]")
"Fulfilled"
>>> assignedcategory("CCCCCCCNCCCCCCC [N-heptyl-1-heptanamine]")
"Fulfilled"
